Where do the numbers come from? From the supplement of paper PMC10567573.

B1: ADAMTSL2 (parent)
chain: KKPPEESTCFERPCFKWYTSPWSE

# Variants of: B1
# MEASUREMENT PROTOCOL: protein stability index of a GFP-peptide fusion (GPS, HEK-293T) (PSI 1-6); higher = more stable;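 further: lentivirally expressed fusions sorted by FACS into six bins by GFP to DsRed ratio, PSI derived from sequencing read proportions per bin multiplied by bin number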
# SETTINGS: c terminus: a fixed tail appended
ASSAY READOUT: protein stability index

> print(dat)
     var  experimental.value
 1   P3L                2.26
 2  P13T                2.16
 3  S20T                2.15
 4  R12P                2.77
 5  F15N                2.63
 6   K1C                1.89
 7   P4A                2.93
 8  T19H                2.65
 9  T19R                2.22
10   C9D                2.97
11  W17T                 2.9
12  W22K                 3.6
13   P4N                2.19
14   S7K                2.21
15   K1V                2.29
16  F10S                3.46
17  S20A                2.88
18  S20I                2.59
19   C9G                2.63
20   K1E                3.08
21   E6I                1.87
22   T8Q                2.79
23   E5Q                   2
24   K1Q                2.58
25   E5W                2.27
